Cited source for all entries: the supplement of paper PMC9170038

System: K4 kissing-loop RNA reporter;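 also: bound reporter read as fluorescence of individual clusters on recovered sequencing chips by microscopy, with normalized cluster intensities fitted with a binding model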
Assay: apparent KD of K4 kissing-loop reporter; higher = weaker reporter binding
Details: Eterna round: R107; input ligand: arginine 13.2 mM
test_readout: apparent KD of K4 kissing-loop reporter (nM)

>>> recorded_result("UCGUCUGUGUGAGGAUAUCCAAGCGAGCUGCGUACAGGUGCGGCGUUUGGAGUGAUGUUCCAGGCAGGAGAAGGCGCACGGGCUU [Esored]")
247
>>> recorded_result("GAAAUCACGGAUGAUACCAGCCAGAACUCUCACAGUGAUGUUGUGCUUAAAUGAUUAGGAGGCCCUUGGCAGCAUACGCUAAUUU [theeternabot_sameState_KL_Theo_B_36]")
267
>>> recorded_result("AAGUGAUGUUGUAGUGAUGUUGUGAUGUUGCAGGAUAUAUAGUGAUGUAGAAGGGUAUGUACUUAUUUUUUAUUUGAGUUAUGUU [mmvmmullin]")
29.8
>>> recorded_result("ACCUACCAUUAGUGAUGUUAAUGGACGGAAGGAGCGCGGAUAUCUGCAGGUAGGUCGCCGAAGGCUAGACAUUGUCUAGCCAUUA [AK1 SS Arginine A]")
113
>>> recorded_result("CAAAUAUGCGGUAGGUUCAAGCGCUGGGAAGGAGCGCAGAUGACUGCAGGUAGGUCGCCCAGUGAUGUUGGGCUUUCCACCUAUG [Esisusa]")
109
>>> recorded_result("UGGAUAUAGUGAUGUUAUAUAGAGAUGGAUACCAGCUGAGAGAAUAGCCCUUGGCAGCCGAAAGAAGUAUCAUUAGAGAAGAAUG [ExTheophyl.Aj]")
188
